B1: KRT18 (parent)
chain: KSQDLAKIMADIRAQYDELARKNR

variants of: B1; test: protein stability index of a GFP-peptide fusion (GPS, HEK-293T) (PSI 1-6); higher = more stable; conditions: c terminus: a fixed tail appended;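 further: lentivirally expressed fusions sorted by FACS into six bins by GFP to DsRed ratio, PSI derived from sequencing read proportions per bin multiplied by bin number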
Recorded Endpoint: protein stability index
Give bare numbers.

The following variants have reported results that may help.
[[record]]
sequence_record = "KSQDLAKIMADYRAQYDELARKNR [I12Y]"
recorded_endpoint = "protein stability index"
readout_value = 3.55

[[record]]
sequence_record = "KSQDVAKIMADIRAQYDELARKNR [L5V]"
recorded_endpoint = "protein stability index"
readout_value = 3.24

[[record]]
sequence_record = "KSQFLAKIMADIRAQYDELARKNR [D4F]"
recorded_endpoint = "protein stability index"
readout_value = 2.25

[[record]]
sequence_record = "KSQDLAKIMADISAQYDELARKNR [R13S]"
recorded_endpoint = "protein stability index"
readout_value = 2.73

[[record]]
sequence_record = "KFQDLAKIMADIRAQYDELARKNR [S2F]"
recorded_endpoint = "protein stability index"
readout_value = 1.84

[[record]]
sequence_record = "MSQDLAKIMADIRAQYDELARKNR [K1M]"
recorded_endpoint = "protein stability index"
readout_value = 2.81

[[record]]
sequence_record = "KSQDLAKIMADIRAQYDELARANR [K22A]"
recorded_endpoint = "protein stability index"
readout_value = 2.67

[[record]]
sequence_record = "KSQDLAKIMADIRAQYPELARKNR [D17P]"
recorded_endpoint = "protein stability index"
readout_value = 3.16

[[record]]
sequence_record = "KSQDLATIMADIRAQYDELARKNR [K7T]"
recorded_endpoint = "protein stability index"
readout_value = 2.67

[[record]]
sequence_record = "KSQDLNKIMADIRAQYDELARKNR [A6N]"
recorded_endpoint = "protein stability index"
readout_value = 3.01


Go through the items and report each one's protein stability index.
1. KSQDLAKIMADIRAQYDELARGNR [K22G]
2. KSQGLAKIMADIRAQYDELARKNR [D4G]
3. KSQDLAHIMADIRAQYDELARKNR [K7H]
4. KSQDLAKIMKDIRAQYDELARKNR [A10K]
5. QSQDLAKIMADIRAQYDELARKNR [K1Q]
6. KSQDLAKIMADQRAQYDELARKNR [I12Q]

[A]
[3.04, 3.18, 2.73, 2.91, 2.9, 4.41]
